These measurements were taken from the PETadex activity labels (doi:10.1101/2025.08.30.673199).

# Substrate: PET
# EXPERIMENT NOTES: Proxy for plastic degradation [Released monomer concentration (HPLC/LC-MS) (TPA+MHET+BHET)]
# TEST SETTINGS: pH 9
MEASURED QUANTITY: Proxy for plastic degradation (µM)
Write it as a number; the unit µM goes unstated.

INPUT: Quick one: Proxy for plastic degradation of unnamed (protein) MKAPLFKLAAFTLGVSLSSVALATNPGGGGAGSNPDTGTGFPGVSSFSADGSFATTSGSAGLSCTVFRPSTLGANGLKHPIIVWGNGTTASPSTYSGILEHWASHGFVVIAANTSNAGTGQDMLNCVDYLTTQNNRSTGTYANKLDLNRIGAAGHSQGGGGTIMAGQDYRIKVTAPFQPYTIALGHNSSSQSNQNGPMFLMTGSADTIASPTLNALPVYNRANVPVFWGELSGASHFEPVGSAGDFRGPSTAWFRYHLMDDASAEDTFYGSNCDLCTDNDWDVRRKGIN ?
OUTPUT: 600
